- Test system: P. falciparum female gametocytes
- test.name: P. falciparum Dual Gamete Formation Assay (PfDGFA), female readout (Pfs25-positive female gametes)
- Format: cell-based, Plasmodium falciparum NF54
- stated.conditions: 2µM, 24h preincubation; number of replicates with >50% inhibition in the female readout
Reported HitlevelF values follow for various molecules
recorded.endpoint: HitlevelF

• O=C(O)C(F)(F)F.O=S(=O)(NCCN1CCCC1)c1ccc(-c2cccc(CNC3Cc4ccccc4C3)c2)s1 [TCMDC-132217] = 1
• Cn1cc(CN2CCC(OC(c3ccccc3)c3ccc(Cl)cc3)CC2)cn1 (stereo not drawn) [TCMDC-136165] = 0
• CCCCCCCN1CC[C@@H](CCCc2ccnc3ccc(OC)cc23)[C@@H](CNC)C1.O=C(O)C(=O)O [TCMDC-139875] = 2
• O=C(C1CC1c1ccccc1)N(Cc1ccc(-c2ccc(CNCCc3ccccc3)cc2)cc1)C1CCNCC1.O=C(O)C(F)(F)F (stereo not drawn) [TCMDC-141443] = 0
• Clc1ccc(CNCCCCCCNCc2ccc(Cl)cc2)cc1.O=C(O)c1ccc2ccccc2c1O [TCMDC-137500] = 0
• CN(C)CCCNCc1cn(S(=O)(=O)c2ccccc2Cl)c2ccccc12.Cl [TCMDC-136302] = 2
